This section presents compounds with their documented pIC50 values.
- target_system: 5HT1A receptors (Rattus norvegicus, UniProt P19327)
- Construct: synaptosomal membranes isolated from cerebral cortex; from tissue; host or cells: rat cerebral cortex, crude synaptosomal membranes
- Sequence (P19327 1-422): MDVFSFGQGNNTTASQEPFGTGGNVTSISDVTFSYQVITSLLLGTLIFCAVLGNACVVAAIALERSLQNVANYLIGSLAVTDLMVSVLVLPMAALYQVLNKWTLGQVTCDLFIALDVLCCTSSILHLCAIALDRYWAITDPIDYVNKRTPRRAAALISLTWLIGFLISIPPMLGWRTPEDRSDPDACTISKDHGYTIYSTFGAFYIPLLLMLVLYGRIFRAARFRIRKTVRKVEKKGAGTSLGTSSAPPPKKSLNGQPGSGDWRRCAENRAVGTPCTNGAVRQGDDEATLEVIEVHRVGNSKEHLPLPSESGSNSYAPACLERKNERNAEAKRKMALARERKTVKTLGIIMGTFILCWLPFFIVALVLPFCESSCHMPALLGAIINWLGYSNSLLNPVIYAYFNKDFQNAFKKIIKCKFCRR
- protocol_text: In vitro binding to 5HT1A receptors (inhibition of 3H-8-OH-DPAT binding, rat cerebral cortex synaptosomal membranes)
- Design: species or system rat (male Sprague-Dawley)
Structures can show the parent of a compound that is named as a salt.
As a rule, pIC50 stands for the negative log10 of the concentration, concentration in M.

CCCN(CCC)C1CCc2cccc(-c3cc(SC)no3)c2C1 (centres unmarked) [Example 7, maleate] = 8.92

Alright, here's another compound for you.
Incoming: Tell me the measured pIC50 of `CCCN(CCC)[C@H]1CCc2cccc(-c3ccno3)c2C1` , please.
Outgoing: 9.70

====

- target_system: muscarinic (M1) receptors (Rattus norvegicus, UniProt P08482)
- Construct: Cerebral cortical membranes were prepared by differential centrifugation; from tissue; host or cells: rat cerebral cortex membranes
- Sequence (P08482 whole entry): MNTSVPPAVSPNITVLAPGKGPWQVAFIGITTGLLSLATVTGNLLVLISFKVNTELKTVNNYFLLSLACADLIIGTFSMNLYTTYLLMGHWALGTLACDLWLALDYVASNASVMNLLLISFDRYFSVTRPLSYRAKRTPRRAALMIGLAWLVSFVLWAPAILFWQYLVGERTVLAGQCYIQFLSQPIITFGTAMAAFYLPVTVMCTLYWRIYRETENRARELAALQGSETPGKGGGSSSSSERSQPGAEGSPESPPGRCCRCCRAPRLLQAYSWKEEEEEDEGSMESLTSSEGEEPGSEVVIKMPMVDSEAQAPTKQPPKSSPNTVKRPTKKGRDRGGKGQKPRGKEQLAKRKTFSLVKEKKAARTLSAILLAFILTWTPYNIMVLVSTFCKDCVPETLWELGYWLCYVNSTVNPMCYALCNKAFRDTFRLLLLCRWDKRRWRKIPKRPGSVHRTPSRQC
- protocol_text: In vitro [3H]-pirenzepine binding (muscarinic M1, rat cerebral cortical membranes)
- Parameters: species or system rat (male Sprague-Dawley)
t if IC50 is below 200 nM. f if not; exact matches included in f.

Some solved cases for reference:
CCCN(CCC)C1CCc2cccc(-c3oncc3C)c2C1.O=C(O)/C=C\C(=O)O (stereo not drawn) [Example 3, maleate] = t
CCCN(CCC)[C@@H]1CCc2cccc(-c3ccno3)c2C1.O=C(O)/C=C\C(=O)O [Example 10, maleate] = t
CCCN(CCC)C1CCc2cccc(O)c2C1 (stereo not drawn) [8-OH DPAT, reference compound] = f

Incoming: # strict comparison: is reported IC50 < 200 nM? input = CCCN(CCC)C1CCc2cccc(-c3cc(Br)no3)c2C1.O=C(O)/C=C\C(=O)O (stereo not drawn) [Example 2, maleate]
Outgoing: f

Incoming: Please do the same for CCCN(CCC)C1CCc2cccc(-c3cc(C)no3)c2C1.O=C(O)/C=C\C(=O)O (stereo not drawn) [Example 5, maleate] as well.
Outgoing: t

====

- Tested on: rat colon (carbachol-induced contraction)
- protocol_text: Reversal of carbachol-induced hypertone (contraction of rat colon strips in vitro)
- Parameters: species or system rat (male Sprague-Dawley)
- measurement_context: colonic smooth muscle in vitro, read-out: Blockade of carbachol-induced contraction of rat colon (IC50)
measured_parameter: log10 of IC50 (log10 of the value in µM)
Please keep in mind that the values are log10 of IC50 expressed in µM.

Sample records with log10 of IC50:
CCCN(CCC)C1CCc2cccc(-c3cc(Br)no3)c2C1.O=C(O)/C=C\C(=O)O (centres unmarked) [Example 2, maleate] = 0.66
CCCN(CCC)[C@@H]1CCc2cccc(-c3ccno3)c2C1.O=C(O)/C=C\C(=O)O [Example 10, maleate] = 0.96
CCCN(CCC)C1CCc2cccc(O)c2C1 (centres unmarked) [8-OH DPAT, reference compound] = 1.47
CCCN(CCC)[C@H]1CCc2cccc(-c3ccno3)c2C1 [Example 9] = 0.40

Incoming: Tell me the measured log10 of IC50 of CCCN(CCC)C1CCc2cccc(-c3ccno3)c2C1.O=C(O)/C=C\C(=O)O (centres unmarked) [Example 1, maleate] , please.
Outgoing: 0.91

Values from patent US5434174A
